- targetUnderTest: GABA A α5 (human receptors of composition α5β3γ2) (Homo sapiens, UniProt P18507+P31644)
- Construct: membrane homogenates used
- protocolSummary: [3H]flumazenil competition binding assay, human GABA A α5β3γ2 receptors in HEK293 cells
- conditionSet: displacement of 0.5 nM [3H]flumazenil, HEK293 membranes, 1 hour at 4° C., means of two determinations, read-out: hKi GABA A α5
endpoint: pKi
Scale: pKi equals -log10([C]), with [C] in mol/L.

Examples with answers:
O=C(c1ccc(OCc2c(-c3ccc(F)cc3)noc2CO)cn1)N1CCC(F)(F)CC1 [Example 37]: 7.99
Cc1onc(-c2ccccn2)c1COc1ccc(C(=O)N2CCSCC2)nc1 [Example 17]: 7.48
Cn1cc(NC(=O)c2ccc(OCc3c(-c4ccc(F)cc4)noc3CO)cn2)cn1 [Example 35]: 8.47
Cc1onc(-c2ccccn2)c1COc1ccc(C(=O)N[C@@H](C)C(F)(F)F)nc1 [Example 22]: 8.25
CNC(=O)c1ccc(OCc2c(-c3ccccn3)noc2C)cn1 [Example 16]: 8.15

Record request: pKi value, item Cc1onc(-c2ccc(F)cn2)c1COc1ccc(C(=O)NN2CCOCC2)nc1 [Example 25] 8.41

Input Cc1onc(-c2ccccn2)c1COc1ccc(C(=O)N[C@H]2CCC[C@@H]2O)nc1 [Example 18] 8.25

Input O=C(NN1CCOCC1)c1ccc(OCc2c(-c3ccc(F)cc3)noc2CO)cn1 [Example 39] 9.10

Input Cc1onc(-c2ccc(F)cn2)c1COc1ccc(C(=O)NC2CC2)nc1 [Example 27] 8.59
